Observed pIC50 values for UniProtKB P00760 are listed in what follows.
Sequence (P00760 24-246): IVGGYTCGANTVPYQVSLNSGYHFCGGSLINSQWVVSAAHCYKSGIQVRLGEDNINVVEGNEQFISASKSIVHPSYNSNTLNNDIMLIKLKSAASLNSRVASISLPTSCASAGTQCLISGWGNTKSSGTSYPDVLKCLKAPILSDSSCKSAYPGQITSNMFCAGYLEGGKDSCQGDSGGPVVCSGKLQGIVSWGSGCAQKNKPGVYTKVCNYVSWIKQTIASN
pIC50: −log10 of the molar value. Non-standard residues stand in square brackets, D forms with d. Residues, ends and D or L forms follow the SMILES beside them. *: point of attachment. Boc = CC(C)(C)OC(=O)*
recorded metric: pIC50

[[record]]
compound = "CC(C)(C)OC(=O)N[C@H](CC(=O)O)C(=O)N1CCC[C@H]1C(=O)N[C@H](C=O)CCCNC(=N)N [Compound 12] (Boc-[dD]-Pro-Arg-aldehyde)"
recorded_metric = "pIC50"
qual = "="
value_observed = 7.08

[[record]]
compound = "N=C(N)c1ccc2cc(OC(=O)c3ccc(N=C(N)N)cc3)ccc2c1 [Futhan, reference compound]"
recorded_metric = "pIC50"
qual = ">"
value_observed = 7.60

[[record]]
compound = "CCOC(=O)c1ccc(OC(=O)CCCCCN=C(N)N)cc1.CS(=O)(=O)O [FOY, gabexate mesilate, reference compound]"
recorded_metric = "pIC50"
qual = "="
value_observed = 6.60

[[record]]
compound = "CC(C)(C)OC(=O)N[C@@H](CC(=O)O)C(=O)N1CCC[C@H]1C(=O)N[C@H](C=O)CCCNC(=N)N [Compound 9] (Boc-Asp-Pro-Arg-aldehyde)"
recorded_metric = "pIC50"
qual = "="
value_observed = 7.85

[[record]]
compound = "CC(C)(C)OC(=O)N[C@@H](CCC(=O)O)C(=O)N1CCC[C@H]1C(=O)N[C@H](C=O)CCCNC(=N)N [Compound 8] (Boc-Glu-Pro-Arg-aldehyde)"
recorded_metric = "pIC50"
qual = "="
value_observed = 8.22

[[record]]
compound = "CC(=O)N[C@@H](CC(C)C)C(=O)N[C@@H](CC(C)C)C(=O)N[C@H](C=O)CCCNC(=N)N [Leupeptin, reference compound]"
recorded_metric = "pIC50"
qual = "="
value_observed = 5.77

